- experimentalSystem: T1, Cynomolgus CD3 epsilon Protein, His Tag (Acrobiosystems, Cat #CDE-05226) (cynomolgus (Macaca fascicularis), UniProt Q95LI5 22-117)
- T1 construct: also called monkey CD3e; not shown: His tag
- T1 sequence: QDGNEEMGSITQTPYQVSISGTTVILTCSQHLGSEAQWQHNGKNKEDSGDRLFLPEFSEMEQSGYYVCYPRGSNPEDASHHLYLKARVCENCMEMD
- experimentNotes: SPR (Biacore), cynomolgus CD3e His tag
valueType: kon (M⁻¹ s⁻¹)
Numbers only, in M⁻¹ s⁻¹.

C3E-30-1B1-mHvKv-IgG1-LALA (antibody, V domains shown, Chimeric) VH: QVQLQQPGSELVRPGASVKLSCKASGYTFTSYWMHWVKQRHGQGLEWIGNIYPDSGTTNYGEKFKTKGTLTVDTSSSTAYMHLSSLTSEDSAVYYCTRDTSGQYYFDYWGQGTTLTVSS VL: DIVMSQSPSSLAVSAGEKVTMSCKSSQSLLNSRTRKNYLAWYQHKPGQSPKLLIYWASTRESGVPDRFTGSGSGTDFTLTISSVQAEDLAVYYCVQSFSLRAFGGGTKLEIK : 108000
10A4-H2K2-IgG1-LALA (antibody, V domains shown, Humanized; human IgG1 with LALA mutations; also called H2K2 (humanized 10A4)) VH: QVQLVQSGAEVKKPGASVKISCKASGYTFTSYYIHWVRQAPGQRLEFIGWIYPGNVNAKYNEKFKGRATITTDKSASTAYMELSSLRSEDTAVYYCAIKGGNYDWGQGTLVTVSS VL: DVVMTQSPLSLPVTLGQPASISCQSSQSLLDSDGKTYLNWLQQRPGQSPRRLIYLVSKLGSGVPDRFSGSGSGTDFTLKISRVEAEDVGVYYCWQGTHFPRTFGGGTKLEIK : 50100

-- ask # input binder: 1B1-H1K3-IgG1-LALA (antibody, V domains shown, Humanized; human IgG1 with LALA mutations; also called H1K3 (humanized 1B1)) VH: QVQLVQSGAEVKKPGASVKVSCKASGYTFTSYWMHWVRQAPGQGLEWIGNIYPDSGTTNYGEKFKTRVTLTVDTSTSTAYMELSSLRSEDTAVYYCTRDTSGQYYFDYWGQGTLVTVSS VL: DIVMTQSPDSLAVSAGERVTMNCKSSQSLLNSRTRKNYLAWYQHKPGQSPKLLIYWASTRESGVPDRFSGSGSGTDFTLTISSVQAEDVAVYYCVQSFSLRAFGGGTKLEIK ; wanted: its kon
-- reply 169000
